- system: His-GST-TVMV-hRIPK1(1-324) (Homo sapiens (Human))
- protocol notes: RIPK1 HTRF Binding Assay
- condition set: HTRF binding, 1 h at rt; read-out: RIPK1 (IC50)
Structures can show the parent of a compound that is named as a salt.
recorded endpoint: IC50 (µM)
Value expressed in µM; do not type the unit.

Solved entries (count: 3):
Req: What does the data say about its IC50? Entry: COc1nc(C)c(-c2ccc3nc(NC(C)=O)cn3n2)cc1C(=O)NC(C)c1cccc(OC(F)(F)F)c1 (stereo not shown) [Example 289]
Resp: 0.016

Req: What does the data say about its IC50? Entry: `CC(=O)Nc1cn2nc(-c3cncc(C(=O)NCc4cc(F)ccc4OC4CCCC4)c3)ccc2n1`
Resp: 0.004

Req: What does the data say about its IC50? Entry: [2H]C([2H])([2H])Oc1ncc(-c2ccc3nc(NC(C)=O)cn3n2)cc1C(=O)NCc1cc(OCC2CC2)ccc1F [Example 56, TFA]
Resp: 0.013

Here's the next entry for you.
Req: What does the data say about its IC50? Entry: `CC(=O)Nc1cn2nc(-c3cc(F)c(F)c(C(=O)NCc4cc(OC(F)(F)F)ccc4F)c3)ccc2n1`
Resp: 0.013

---

- system: His-GST-TVMV-hRIPK1(1-324) (Homo sapiens (Human), UniProt Q13546)
- Sequence (Q13546 1-324): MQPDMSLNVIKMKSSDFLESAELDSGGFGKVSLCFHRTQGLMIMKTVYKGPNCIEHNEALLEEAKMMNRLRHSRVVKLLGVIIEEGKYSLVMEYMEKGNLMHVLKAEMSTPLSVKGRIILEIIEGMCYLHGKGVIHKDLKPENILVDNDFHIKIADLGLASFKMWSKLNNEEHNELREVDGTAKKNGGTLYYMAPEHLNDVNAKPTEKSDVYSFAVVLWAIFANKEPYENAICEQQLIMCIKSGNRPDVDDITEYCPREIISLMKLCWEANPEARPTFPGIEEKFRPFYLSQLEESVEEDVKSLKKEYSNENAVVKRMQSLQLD
- protocol notes: RIPK1 HTRF Binding Assay
- condition set: HTRF binding, 1 h at rt; read-out: RIPK1 (IC50)
Values of IC50 strictly less than 7 nM map to True, and values of at least 7 nM map to False.

Examples with answers:
Req: IC50 strictly < 7 nM for this molecule? Cc1ncc(-c2ccc3nc(NC(=O)CN4CCCC4)cn3n2)cc1C(=O)N[C@H](C)c1cc(C(F)(F)F)ccc1F [Example 333]
Resp: False

Req: IC50 strictly < 7 nM for this molecule? COc1ncc(-c2ccc3nc(NC(C)=O)cn3n2)cc1C(=O)NCc1ccccc1OCC(F)(F)F [Example 108]
Resp: True

Req: IC50 strictly < 7 nM for this molecule? CC(=O)Nc1cn2nc(-c3ccc(F)c(C(=O)N[C@@H](C)c4cc(OC(F)(F)F)ccc4F)c3F)ccc2n1 [Example 379]
Resp: True

Req: IC50 strictly < 7 nM for this molecule? CC(=O)Nc1cn2nc(-c3cc(C(=O)NCc4ncccc4OCC(F)(F)F)c(C)nc3C)ccc2n1 [Example 65]
Resp: False

Req: IC50 strictly < 7 nM for this molecule? CC(=O)Nc1cn2nc(-c3cnc(C)c(C(=O)NCc4cc(-c5cnn(C)c5)ccc4F)c3)ccc2n1 [Example 352]
Resp: False

Req: IC50 strictly < 7 nM for this molecule? COc1nc(C)c(-c2ccc3nc(NC(C)=O)cn3n2)cc1C(=O)NCc1cccc(OC(F)(F)F)c1 [Example 319]
Resp: False

Req: IC50 strictly < 7 nM for this molecule? CC(=O)Nc1cn2nc(-c3ccc(Cl)c(C(=O)NCc4ccc(OC(F)(F)F)cc4)c3F)ccc2n1 [Example 391]
Resp: False

Req: IC50 strictly < 7 nM for this molecule? COc1ncc(-c2ccc3nc(NC(C)=O)cn3n2)cc1C(=O)NCc1ccc(F)cc1OC(F)(F)F [Example 120]
Resp: False

Req: IC50 strictly < 7 nM for this molecule? CC(=O)Nc1cn2nc(-c3cc(F)c(C)c(C(=O)N[C@@H](C)c4cc(OC(F)(F)F)ccc4F)c3)ccc2n1 [Example 360]
Resp: True

Req: IC50 strictly < 7 nM for this molecule? COc1ncc(-c2ccc3nc(NC(C)=O)cn3n2)cc1C(=O)NCc1ccc(F)c(OCC2CC2)c1 [Example 142]
Resp: False

Switching to the query record.
Req: IC50 strictly < 7 nM for this molecule? COc1nc(C)c(-c2ccc3nc(NC(C)=O)cn3n2)cc1C(=O)NCc1cc(F)cc(C(F)(F)F)c1 [Example 293]
Resp: False

---

- system: His-GST-TVMV-hRIPK1(1-324) (Homo sapiens (Human), UniProt Q13546)
- protocol notes: RIPK1 HTRF Binding Assay
- condition set: HTRF binding, 1 h at rt; read-out: RIPK1 (IC50)
log10(IC50): recorded values
Give log10 of IC50, with IC50 taken in nM.

Solved entries (count: 2):
Req: What does the data say about its log10(IC50)? Entry: `COc1nc(C)c(-c2ccc3nc(NC(C)=O)cn3n2)cc1C(=O)NCc1c(F)cc(F)cc1OCC1CC1`
Resp: 1.63

Req: What does the data say about its log10(IC50)? Entry: `[2H]C([2H])([2H])[C@@H](NC(=O)c1c(C)ccc(-c2ccc3nc(NC(C)=O)cn3n2)c1F)c1cc(C(F)(F)F)ccc1F`
Resp: 0.48

Others:
Req: What does the data say about its log10(IC50)? Entry: `CC(=O)Nc1cn2nc(-c3ccc(C)c(C(=O)NCc4ccc(F)c(F)c4C(=O)N4CCC(F)(F)C4)c3F)ccc2n1`
Resp: 0.95

Req: What does the data say about its log10(IC50)? Entry: `[2H]C([2H])([2H])Oc1nc(C)c(-c2ccc3nc(NC(C)=O)cn3n2)cc1C(=O)NCc1cc(F)cc(F)c1O[C@@H]1CCOC1`
Resp: 0.48

Req: What does the data say about its log10(IC50)? Entry: `CC(=O)Nc1cn2nc(-c3cnc(C)c(C(=O)NCc4cc(C(F)(F)F)ccn4)c3)ccc2n1`
Resp: 2.97

Req: What does the data say about its log10(IC50)? Entry: `[2H]C([2H])(NC(=O)c1cc(-c2ccc3nc(NC(=O)CO)cn3n2)cnc1OC)c1cc(F)cc(F)c1OC1CCOCC1`
Resp: 0.30

Req: What does the data say about its log10(IC50)? Entry: COc1nc(C)c(-c2ccc3nc(NC(C)=O)cn3n2)cc1C(=O)NCc1ccccc1OC1CCOC1 (centres unmarked) [Example 307]
Resp: 1.04

Req: What does the data say about its log10(IC50)? Entry: `COc1nc(C)c(-c2ccc3nc(NC(C)=O)cn3n2)cc1C(=O)NCc1cccc(F)c1OCC1CCC1`
Resp: 0.78

---

- system: His-GST-TVMV-hRIPK1(1-324) (Homo sapiens (Human), UniProt Q13546)
- protocol notes: RIPK1 HTRF Binding Assay
- condition set: HTRF binding, 1 h at rt; read-out: RIPK1 (IC50)
- Procedure: A solution was prepared containing 0.2 nM Anti GST-Tb (Cisbio, 61GSTTLB), 90.6 nM probe and 1 nM His-GST-TVMV-hRIPK1(1-324) in FRET Buffer (20 mM HEPES, 10 mM MgCl2, 0.015% Brij-35, 4 mM DTT, 0.05 mg/mL BSA). […] FRET was measured using the EnVision plate reader (Excitation: 340 nm, Emission: 520 nm/[…]). Total signal (0% inhibition) was calculated from wells containing 10 nL DMSO only. […]
recorded endpoint: IC50 (nM)
Value expressed in nM; do not type the unit.

Req: Write down the reported IC50 of `CC(=O)Nc1cn2nc(-c3cc(C(=O)NCC[C@@H](O)c4ccc(Cl)cc4)cc(F)c3C)ccc2n1` , test system: His-GST-TVMV-hRIPK1(1-324) (Homo sapiens (Human), UniProt Q13546).
Resp: 11

Req: Write down the reported IC50 of `COc1ncc(-c2ccc3nc(NC(C)=O)cn3n2)cc1C(=O)NCc1cc(F)cc(F)c1O[C@H]1CCOC1` , test system: His-GST-TVMV-hRIPK1(1-324) (Homo sapiens (Human), UniProt Q13546).
Resp: 2

Req: Write down the reported IC50 of `COc1ncc(-c2ccc3nc(NC(C)=O)cn3n2)cc1C(=O)NCc1cc(F)cc(F)c1OCC1CCC1` , test system: His-GST-TVMV-hRIPK1(1-324) (Homo sapiens (Human), UniProt Q13546).
Resp: 2

Req: Write down the reported IC50 of `COc1ccc(F)c(CNC(=O)c2cc(-c3ccc4nc(NC(C)=O)cn4n3)c(C)nc2C)c1` , test system: His-GST-TVMV-hRIPK1(1-324) (Homo sapiens (Human), UniProt Q13546).
Resp: 67

Req: Write down the reported IC50 of CC(=O)Nc1cn2nc(-c3cnc(Cl)c(C(=O)NC(C)c4ccccc4OC(F)(F)F)c3)ccc2n1 (stereo not drawn) [Example 271] , test system: His-GST-TVMV-hRIPK1(1-324) (Homo sapiens (Human), UniProt Q13546).
Resp: 49

Req: Write down the reported IC50 of `CC(=O)Nc1cn2nc(-c3cncc(C(=O)NCc4ccccc4OC4CCCC4)c3)ccc2n1` , test system: His-GST-TVMV-hRIPK1(1-324) (Homo sapiens (Human), UniProt Q13546).
Resp: 10

Req: Write down the reported IC50 of `COc1ncc(-c2ccc3nc(NC(C)=O)cn3n2)cc1C(=O)NCc1ccccc1OCC(C)C` , test system: His-GST-TVMV-hRIPK1(1-324) (Homo sapiens (Human), UniProt Q13546).
Resp: 6
